Value source: paper PMC4552634

Listed next: entries and their corresponding % Inhibition.
Tested on: P. falciparum stage V gametocytes
Parameters: BacTiter-Glo ATP luminescence viability of purified stage V gametocytes in 384-well plates, per cent inhibition versus DMSO
condition.summary: 48 h, 5 µM; inhibitor
The whole screen tested about 13,000 compounds, of which about 3,200 (25%) showed an effect of 50% or more. The list shows a part of the results.
reported.metric: % Inhibition

- molecule: "Cc1cc(Nc2nc(Nc3cccc(Cl)c3)nc3ccccc23)n[nH]1"
  recorded.result: "12.71%"
- molecule: "COc1ccc(C(=O)CCC(=O)N(CCC2CCCN2C)Cc2ccc(-c3ccc(CNCCc4ccc(S(C)(=O)=O)cc4)cn3)cc2)cc1F (stereo not shown)"
  recorded.result: "-2.666%"
- molecule: "COc1cc(Nc2nccc(Nc3ccc4c(C)[nH]nc4c3)n2)cc2ccccc12"
  recorded.result: "-18.63%"
- molecule: "COc1ccc(C(=O)CCC(=O)N(Cc2ccc(-c3ccc(CNCCc4ccc(S(C)(=O)=O)cc4)cn3)cc2)C(C)CN(C)C)cc1F (stereo not shown)"
  recorded.result: "102.4%"
- molecule: "CCC[C@@H]([C@@H](CC1CCC(C)CC1)C(=O)N[C@@H](CO)C(=O)Nc1nccs1)N(O)C=O (stereo partly shown)"
  recorded.result: "0.01446%"
- molecule: "NC(=O)c1ccc(NC(=O)CN(Cc2ccc(Cl)cc2)S(=O)(=O)c2ccccc2)cc1"
  recorded.result: "35.94%"
- molecule: "CCOc1ccc(-c2nonc2NC(=O)c2ccc(OC)cc2)cc1OCC"
  recorded.result: "49.87%"
- molecule: "COc1ccc(C(=O)CCC(=O)N(Cc2ccc(-c3ccc(CNCCc4ccc(S(C)(=O)=O)cc4)cn3)cc2)C2CC3CCC2C3)cc1F (stereo not shown)"
  recorded.result: "-37.66%"
- molecule: "CCn1c(-c2nc(-c3ccc4c(c3)OCO4)cnc2N)nc2cnccc21"
  recorded.result: "6.285%"
- molecule: "Clc1cccc(Nc2ccc3c(N4CCCCC4)ncnc3n2)c1"
  recorded.result: "52.12%"
- molecule: "O=C(NCC1CCC1)c1cnc(Nc2cccc(Cl)c2)nc1N1CCC1"
  recorded.result: "5.577%"
- molecule: "CCC(NC(=O)c1ccccc1NC(=O)c1ccc(C)cc1)C(=O)OC (stereo not shown)"
  recorded.result: "51.66%"
- molecule: "CC(C)(C)c1cc(C(=O)N2CCN(c3ncccc3C(F)(F)F)CC2)n(Cc2ccccc2)n1"
  recorded.result: "2.354%"
- molecule: "Cc1cc2[nH]c(-c3ccc(C(=O)NCCCN4CCN(c5cccc(Cl)c5)CC4)cc3)nc2cc1Cl"
  recorded.result: "-17.26%"
- molecule: "CCOC(=O)c1ccc(NC(=O)c2ccccc2C(=O)O)cc1"
  recorded.result: "12.67%"
- molecule: "COc1ccc(C(=O)CCC(=O)N(Cc2ccc(-c3ccc(CNCCc4ccc(S(C)(=O)=O)cc4)cn3)cc2)Cc2ccc3c(c2)OCO3)cc1F"
  recorded.result: "67.48%"

---

System: P. falciparum stage V gametocytes
Design: BacTiter-Glo ATP luminescence viability of purified stage V gametocytes in 384-well plates, per cent inhibition versus DMSO
condition.summary: 48 h, 5 µM; inhibitor
Among all 13,000 compounds or so, about 3,200 (25%) showed an effect of 50% or more. Some of the results follow.

- molecule: "COc1cc(C2NCC3(CCOCC3)c3cc4c(cc32)OCCO4)cc(OC)c1OC (stereo not shown)"
  unit.symbol: "%"
  % Inhibition: -20.6
- molecule: "Cc1cccc2nc(-c3ccc(-c4ccc(NC(=O)NCc5cccc(F)c5)cc4)s3)[nH]c12"
  unit.symbol: "%"
  % Inhibition: 5.156
- molecule: "COC(=O)c1ccc(CC(C)NCC(O)c2ccc(Cl)c(Cl)c2)cc1 (stereo not shown)"
  unit.symbol: "%"
  % Inhibition: 21.35
- molecule: "CC(=O)Nc1cccc(CNCc2ccc(-c3cnc(N4CCCC(c5ccccc5)C4)nc3)cc2)c1 (stereo not shown)"
  unit.symbol: "%"
  % Inhibition: -4.34
- molecule: "C[C@H](Cc1ccc(OCCNC[C@H](O)c2cccc(Cl)c2)cc1)NC[C@H](O)c1ccc(Cl)c(Cl)c1"
  unit.symbol: "%"
  % Inhibition: 69.99
- molecule: "COC(=O)c1ccc(CC(C)NCC(O)c2ccc(C(O)CNC(C)Cc3ccc(C(=O)OC)cc3)cc2)cc1 (stereo not shown)"
  unit.symbol: "%"
  % Inhibition: 100.9
- molecule: "O=C(NCCCCN1CCC(c2ccc3c(c2OCC(O)c2ccc(Cl)cc2)CCCC3)CC1)c1ccc(-c2ccc(C(F)(F)F)cc2)cc1 (stereo not shown)"
  unit.symbol: "%"
  % Inhibition: 115
- molecule: "O=C(NC1CC1)c1ccc(Cn2c(SCc3cccc(Cl)c3)nc3ccccc3c2=O)cc1"
  unit.symbol: "%"
  % Inhibition: 23.52
- molecule: "CCCc1cc(OC)c(CC2c3cc(O)c(Cl)cc3C(c3ccccc3)CN2C)cc1OC (stereo not shown)"
  unit.symbol: "%"
  % Inhibition: 12.27
- molecule: "CCCNCc1c(O)ccc2c(CNCCC)c(O)ccc12"
  unit.symbol: "%"
  % Inhibition: -47.95
- molecule: "O=C(NCCCCN1CCC(c2ccc3c(c2OCCN2CCCC2)CCCC3)CC1)c1ccc(-c2ccc(C(F)(F)F)cc2)cc1"
  unit.symbol: "%"
  % Inhibition: 107.4
- molecule: "Cc1cc(-c2ccc(NC(=O)c3coc4ccc(N5CC(C)N(C)C(C)C5)cc34)cc2C)cc(C)n1 (stereo not shown)"
  unit.symbol: "%"
  % Inhibition: -15.05
- molecule: "Cc1nc(-c2ccc(-c3ccc(NC(=O)c4coc5ccc(N6CC(C)NC(C)C6)cc45)cc3)c(C)c2)no1 (stereo not shown)"
  unit.symbol: "%"
  % Inhibition: -4.933
- molecule: "CC(=O)COc1c(C2CCN(CCCCNC(=O)c3ccc(-c4ccc(C(F)(F)F)cc4)cc3)CC2)ccc2c1CCCC2"
  unit.symbol: "%"
  % Inhibition: 105.6
- molecule: "C[C@H](Cc1ccc(OCCCCCCOc2ccccc2)cc1)NC[C@@H](O)c1cc(Br)no1"
  unit.symbol: "%"
  % Inhibition: 65.38
- molecule: "Cn1ccnc1-c1nc2ccccn2c1NCC(=O)Nc1ccccc1N1CCCCC1"
  unit.symbol: "%"
  % Inhibition: -70.89

---

Test system: P. falciparum stage V gametocytes
Set-up: BacTiter-Glo ATP luminescence viability of purified stage V gametocytes in 384-well plates, per cent inhibition versus DMSO
condition.summary: 48 h, 5 µM; inhibitor
Among all 13,000 compounds or so, about 3,200 (25%) showed an effect of 50% or more. Some of the results follow.
reported.metric: % Inhibition (%)

- compound: "Cc1c(C(=O)C2CC2CN2CCC(N3CCCCC3)CC2)sc2ccccc12 (stereo not drawn) [TCMDC-132576]"
  assay.system: "P. falciparum stage V gametocytes"
  reported.metric: "% Inhibition"
  recorded.result: 19.76
- compound: "CCN1CCN(CCCNc2ccnc3cc(Cl)ccc23)CC1 [TCMDC-137588]"
  assay.system: "P. falciparum stage V gametocytes"
  reported.metric: "% Inhibition"
  recorded.result: 6.527
- compound: "O=C(NC1CC1)c1ccc(N2CCOc3ccc(Cl)cc32)s1 [TCMDC-125270]"
  assay.system: "P. falciparum stage V gametocytes"
  reported.metric: "% Inhibition"
  recorded.result: 3.185
- compound: "Cc1ccc2nc(Cl)c3cc(C(=O)NCCCN4CCCC4)sc3c2c1 [TCMDC-125000]"
  assay.system: "P. falciparum stage V gametocytes"
  reported.metric: "% Inhibition"
  recorded.result: 29.06
- compound: "Cc1ccc2nc3sc(C(=O)NCCCN4CCC(N5CCCCC5)CC4)cc3cc2c1 [TCMDC-125157]"
  assay.system: "P. falciparum stage V gametocytes"
  reported.metric: "% Inhibition"
  recorded.result: 73.7
- compound: "O=C(NCCCN1CCC(N2CCCCC2)CC1)c1ccc(N2CCOc3ccccc32)s1 [TCMDC-125271]"
  assay.system: "P. falciparum stage V gametocytes"
  reported.metric: "% Inhibition"
  recorded.result: 84.69
- compound: "COc1ccc2nc3ccccc3c(NCCN3CCN(C)CC3)c2c1 [TCMDC-138017]"
  assay.system: "P. falciparum stage V gametocytes"
  reported.metric: "% Inhibition"
  recorded.result: 69.17
- compound: "CCCN1CCN(CCCNC(=O)c2cc3c(Cl)nc4ccc(C)cc4c3s2)CC1 [TCMDC-124441]"
  assay.system: "P. falciparum stage V gametocytes"
  reported.metric: "% Inhibition"
  recorded.result: 16.62
- compound: "c1ccc(CCNc2nc(NCC(c3ccccc3)c3ccccc3)c3[nH]cnc3n2)cc1 [TCMDC-131858]"
  assay.system: "P. falciparum stage V gametocytes"
  reported.metric: "% Inhibition"
  recorded.result: -2.796
